# credit: ChEMBL document CHEMBL1153663

# system-tested: Calpain-1 catalytic subunit (Homo sapiens)
# Sequence (P07384 whole entry): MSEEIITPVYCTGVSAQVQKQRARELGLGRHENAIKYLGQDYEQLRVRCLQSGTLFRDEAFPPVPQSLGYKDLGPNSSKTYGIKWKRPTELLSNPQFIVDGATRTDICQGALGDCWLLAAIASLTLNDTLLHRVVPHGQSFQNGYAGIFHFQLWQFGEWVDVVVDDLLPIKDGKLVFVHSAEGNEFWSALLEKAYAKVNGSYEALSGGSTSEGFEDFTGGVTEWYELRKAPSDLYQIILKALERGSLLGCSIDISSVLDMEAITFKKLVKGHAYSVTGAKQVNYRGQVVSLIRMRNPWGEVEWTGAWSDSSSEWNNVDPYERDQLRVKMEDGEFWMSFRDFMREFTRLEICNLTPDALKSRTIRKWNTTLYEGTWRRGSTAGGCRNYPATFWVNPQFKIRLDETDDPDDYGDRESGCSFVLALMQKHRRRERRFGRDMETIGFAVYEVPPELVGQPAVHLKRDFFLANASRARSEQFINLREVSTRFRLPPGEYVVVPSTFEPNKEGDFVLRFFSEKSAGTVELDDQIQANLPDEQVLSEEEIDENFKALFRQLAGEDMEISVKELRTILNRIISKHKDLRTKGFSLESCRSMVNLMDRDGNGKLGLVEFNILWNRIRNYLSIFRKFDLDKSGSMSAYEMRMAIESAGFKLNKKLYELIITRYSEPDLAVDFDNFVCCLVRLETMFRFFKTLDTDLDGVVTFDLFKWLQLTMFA
# experiment-summary: In vitro inhibitory activity against human erythrocyte Calpain 1
In this section, each of the molecules is paired with its reported pIC50.
Worth noting: pIC50 values are minus log10 of concentrations stated in mol/L.

Below, 3 molecules whose answers are already recorded.
{"smiles-repr": "NC(=O)c1cn(-c2ccc(O)cc2Cl)c2cc(-c3cccnc3)ccc2c1=O", "system-tested": "Calpain-1 catalytic subunit (Homo sapiens)", "pIC50": 5.00}
{"smiles-repr": "NC(=O)c1cn(-c2ccc(O)cc2Cl)c2cc(-c3ccnc(F)c3)ccc2c1=O", "system-tested": "Calpain-1 catalytic subunit (Homo sapiens)", "pIC50": 4.52}
{"smiles-repr": "NC(=O)c1cn(-c2ccc(O)cc2Cl)c2cc(-c3ccncc3)ccc2c1=O", "system-tested": "Calpain-1 catalytic subunit (Homo sapiens)", "pIC50": 6.30}

Task: Value lookup for pIC50; key = "NC(=O)c1cn(-c2ccc(O)cc2Cl)c2cc(-n3cccn3)ccc2c1=O"
Output: 6.22

Task: Value lookup for pIC50; key = "NC(=O)c1cn(-c2ccc(O)cc2C(F)(F)F)c2cc(-c3ccncc3)ccc2c1=O"
Output: 4.70

Task: Value lookup for pIC50; key = "NC(=O)c1cn(-c2ccc(O)cc2Cl)c2cc(-c3ccccn3)ccc2c1=O"
Output: 4.52

Task: Value lookup for pIC50; key = "Cc1cc(O)ccc1-n1cc(C(N)=O)c(=O)c2ccc(-c3ccncc3)cc21"
Output: 6.30

Task: Value lookup for pIC50; key = "NC(=O)c1cn(-c2ccc(O)cc2Cl)c2cc(-c3ccncc3Cl)ccc2c1=O"
Output: 5.70

Task: Value lookup for pIC50; key = "NC(=O)c1cn(-c2ccc(O)cc2Cl)c2cc(-c3ccoc3)ccc2c1=O"
Output: 5.70

Task: Value lookup for pIC50; key = "NC(=O)c1cn(-c2ccc(O)cc2F)c2cc(-c3ccncc3)ccc2c1=O"
Output: 5.15
